B1: INTS3 (parent)
chain: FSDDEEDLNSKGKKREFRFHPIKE

variants of: B1; assay: protein stability index of a GFP-peptide fusion (GPS, HEK-293T) (PSI 1-6); higher = more stable; conditions: c terminus: a fixed tail appended;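 also: lentivirally expressed fusions sorted by FACS into six bins by GFP to DsRed ratio, PSI derived from sequencing read proportions per bin multiplied by bin number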
Would you please tag the item Satisfied when its protein stability index is 3 or above, and Not satisfied when it is below?

variant-name	category-label
D4W	Not satisfied
E5M	Not satisfied
E16K	Satisfied
D7F	Not satisfied
E6Q	Not satisfied
S10Y	Not satisfied
F1R	Not satisfied
F17P	Satisfied
K23N	Satisfied
E24L	Not satisfied
R18H	Satisfied
F17E	Satisfied
S2I	Not satisfied
K13F	Not satisfied
F1V	Satisfied
I22W	Not satisfied
